# target: T1, human IL-4Rα (SPR target) (human, UniProt P24394 26-232, limits assumed)
# T1 construct: also called recombinant human IL-4Rα-Fc
# T1 sequence (looked up): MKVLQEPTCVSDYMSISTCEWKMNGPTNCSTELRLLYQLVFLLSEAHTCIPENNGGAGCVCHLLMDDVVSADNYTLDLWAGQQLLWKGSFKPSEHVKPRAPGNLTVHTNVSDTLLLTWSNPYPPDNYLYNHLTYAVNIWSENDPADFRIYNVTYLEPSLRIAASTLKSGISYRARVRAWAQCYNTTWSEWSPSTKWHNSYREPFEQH
# assay name: SPR (Biacore 3000), periplasmic Fab over CM5 chip coated with human IL-4Rα
Given measured R0 (binding), output True if it is greater than or equal to 70 and False if not.

• 3D6wt Fab (parental 4RMP3D6 as Fab) (Fab, V domains shown, also called h4R3D6) VH: QVQLQESGGGLVQPGGSLRLSCAASGFTFSSYSLTWVRQAPGKGLEWVSTIKARGGTTLYADSVKDRFTISRDNAKNTLYLLMNSLKPEDTAVYYCAKPLYNNFAGDFGSWGQGTTVTVSS VL: DIQMTQSPSSLSASLGDRVTITCQASQSISSYLAWYQQKPGQAPKLLIYGGSRLQTGVPSRFSGSGSGTSFTLTISGLETEDLATYYCLQDYSWPLTFGQGTKVELK = True
• 152B10 Fab (variant of 4RMP3D6) (Fab, V domains shown, Fab from periplasmic extract, with CH1 and CK constant domains; also called VH152B10) VH: QVQLQESGGGLVQPGGSLRLSCAASGFTFSSYSLTWVRQAPGKGLEWVSTIKARGGTTLYADSVKDRFTISRDNAKNTLYLLVNSLKPEDTAVYYCAKPLYNNLAGDFGSWGQGTTVTVSS VL: DIQMTQSPSSLSASLGDRVTITCQASQSISSYLAWYQQKPGQAPKLLIYGGSRLQAGVPSRFSGSGSGTSFTLTIGGLETEDLATYYCQQDYSWPLTFGQGTKLEIK = True
• 152A07 Fab (variant of 4RMP3D6) (Fab, V domains shown, also called VH152A07) VH: QVQLQESGGGLVQPGGSLRLSCAASGFTFSSYSLTWVRQAPGKGLEWVSTIKARGGTTLYADSVKDRFTISRDNAKNTLYLLMNSLKPEDTAVYYCAKPLYSNLAGDLGSWGQGTTVTVSS VL: DIQMTQSPSSLSASLGDRVTITCQASQSISSYLAWYQQKPGQAPKLLIYGGSRLQTGVPSRFSGSGSGTSFTLTISGLETEDLATYYCLQDYSWPLTFGQGTKLEIK = False
• 153E11 Fab (variant of 4RMP3D6) (Fab, V domains shown, Fab from periplasmic extract, with CH1 and CK constant domains; also called VH153E11) VH: QVQLQESGGGLVQPGGSLRLSCAASGFTFSSYSLTWVRQAPGKGLEWVSTIKARGGTTLYADSVKDRFTISRDNAKNTLYLLMNSLKPEDTAVYYCAKPLYNNFAGHFGSWGQGTTVTVSS VL: DIQMTQSPSSLSASLGDRVTITCQASQSISSYLAWYQQKPGQAPKLLIYGGSRLQTGVPSRFSGSGSGTSFTLTISGLETEDLATYYCQQDYSWPLTFGQGTKLEIK = False
• 150A09 Fab (variant of 4RMP3D6) (Fab, V domains shown, Fab from periplasmic extract, with CH1 and CK constant domains; also called VH150A09) VH: QVQLQESGGGLVQPGGSLRLSCAASGFTFSSYSLTWVRQAPGKGLEWVSTIKARGGTTLYADSVKDRFTISRDNAKNTLYLLMNSLKPEDTAVYYCVKPLYSNFAGDFGSWGQGTTVTVSS VL: DIQMTQSPSSLSASLGDRVTITCQASQSISSYLAWYQQKPGQAPRLLIYGGSRLQTGVPSRFSGSGSGTSFTLTISGLETEDLATYYCQQDYSWPLTFGQGTKLEIK = False
